Below, each entry is listed alongside its reported zone of inhibition at 80 µg/mL.
# System: Pseudomonas aeruginosa
# Experimental Protocol: Antibacterial activity against Pseudomonas aeruginosa PS1.0050 assessed as diameter of zone of inhibition at 80 ug/ml after 18 hrs by agar diffusion method
# Format: functional
# Measurement Conditions: PS1.0050, 18 h, read-out: DIZ
Value Kind: zone of inhibition at 80 µg/mL (mm)

{"columns": ["Compound", "Value Kind", "Reported Value"],
 "data": [
  ["Nc1n[nH]c(SCC(=O)NC2CCN(c3c(F)cc4c(=O)c(C(=O)O)cn(C5CC5)c4c3Cl)C2)n1 (stereo unspecified)", "zone of inhibition at 80 µg/mL", 16],
  ["O=C(CCn1ccnn1)NC1CCN(c2c(F)cc3c(=O)c(C(=O)O)cn(C4CC4)c3c2Cl)C1 (stereo unspecified)", "zone of inhibition at 80 µg/mL", 14],
  ["Nc1ccn(CC(=O)NC2CCN(c3c(F)cc4c(=O)c(C(=O)O)cn(C5CC5)c4c3Cl)C2)n1 (stereo unspecified)", "zone of inhibition at 80 µg/mL", 25],
  ["O=C(Cn1ccnn1)NC1CCN(c2c(F)cc3c(=O)c(C(=O)O)cn(C4CC4)c3c2Cl)C1 (stereo unspecified)", "zone of inhibition at 80 µg/mL", 19],
  ["Nc1nnc(SCC(=O)NC2CCN(c3c(F)cc4c(=O)c(C(=O)O)cn(C5CC5)c4c3Cl)C2)s1 (stereo unspecified)", "zone of inhibition at 80 µg/mL", 15]
]}

---

# MIC annotations
# Tested on: Staphylococcus aureus
# Experimental Protocol: Antibacterial activity against Staphylococcus aureus ATCC 29213 measured after 120 days of sample dissolution by serial dilution method
# Assay type: functional

{"columns": ["Compound", "MIC"],
 "data": [
  ["O=C(Cn1ccnn1)NC1CCN(c2c(F)cc3c(=O)c(C(=O)O)cn(C4CC4)c3c2Cl)C1 (stereo not given)", "4 µg/mL"],
  ["Nc1ccn(CC(=O)NC2CCN(c3c(F)cc4c(=O)c(C(=O)O)cn(C5CC5)c4c3Cl)C2)n1 (stereo not given)", "16 µg/mL"],
  ["NC1CCN(c2c(F)cc3c(=O)c(C(=O)O)cn(C4CC4)c3c2Cl)C1 (stereo not given) [CLINAFLOXACIN]", "1 µg/mL"],
  ["Nc1nnc(SCC(=O)NC2CCN(c3c(F)cc4c(=O)c(C(=O)O)cn(C5CC5)c4c3Cl)C2)s1 (stereo not given)", "8 µg/mL"],
  ["Nc1n[nH]c(SCC(=O)NC2CCN(c3c(F)cc4c(=O)c(C(=O)O)cn(C5CC5)c4c3Cl)C2)n1 (stereo not given)", "16 µg/mL"]
]}

---

# Experimental Protocol: Cytotoxicity against human HeLa cells assessed as growth inhibition at 20 uM by Celltiter-Glo luminescence assay
# Type: cell-based
# Measurement Conditions: read-out: GI

{"columns": ["Compound", "Unit Spec", "inhibition at 20 µM"],
 "data": [
  ["Nc1ccn(CC(=O)NC2CCN(c3c(F)cc4c(=O)c(C(=O)O)cn(C5CC5)c4c3Cl)C2)n1 (stereo unspecified)", "%", -17.1],
  ["Nc1nnc(SCCC(=O)NC2CCN(c3c(F)cc4c(=O)c(C(=O)O)cn(C5CC5)c4c3Cl)C2)s1 (stereo unspecified)", "%", -21.2],
  ["O=C(Cn1ccnn1)NC1CCN(c2c(F)cc3c(=O)c(C(=O)O)cn(C4CC4)c3c2Cl)C1 (stereo unspecified)", "%", -10.1],
  ["Nc1n[nH]c(SCC(=O)NC2CCN(c3c(F)cc4c(=O)c(C(=O)O)cn(C5CC5)c4c3Cl)C2)n1 (stereo unspecified)", "%", -7.2],
  ["O=C(CCn1ccnn1)NC1CCN(c2c(F)cc3c(=O)c(C(=O)O)cn(C4CC4)c3c2Cl)C1 (stereo unspecified)", "%", -9.5],
  ["Nc1nnc(SCC(=O)NC2CCN(c3c(F)cc4c(=O)c(C(=O)O)cn(C5CC5)c4c3Cl)C2)s1 (stereo unspecified)", "%", -11.2]
]}
